Here the recorded activity change, negative = inhibition is given for each entry.
PROTOCOL_DESCRIPTION: CMV-Luciferase Counterscreen for Inhibitors of ATXN expression; also: nearly all actives have a fitted effect of over 55% in size; as to activity change, negative = inhibition: % is scaled to controls: 0 for no effect and ±100 for the full control effect
CONDITION_SUMMARY: HEK-293 CMV-luciferase reporter, luminescence, 24 h; series mostly up to 57.5 µM
In all, about 2,100 compounds went through this assay and about 670 (32%) were called active. Another 50% or so got no clear call; they are omitted. The list shows a part of the results.

Study these solved cases before continuing.
COMPOUND	TEST_RESULT
CCN(CC)CCC(=O)Nc1cccc2c1C(=O)c1ccccc1C2=O	-4.68% [at 11.4 µM] (inactive)
COc1ccc(C(=O)/C=C/c2cccc(OCc3ccccc3)c2)cc1CSCC(=O)O	-3.73% [at 11.4 µM] (inactive)

What activity change, negative = inhibition value was documented for this compound, CCOC(=O)c1c(NC(=O)COC(=O)c2ccccc2NC)sc(C(=O)N(C)C)c1C ?
-21.4% [at 11.4 µM] (inactive)

And then OC1(c2ccc(Br)cc2)CCNCC1 , what is it?
0.489% [at 11.4 µM] (inactive)

What about this compound? Nc1ccc2cc3[nH]c4cc(N)ccc4c3nc2c1
-29.2% [at 11.4 µM] (inactive)

Record: NCCCCCc1nnc(SCc2ccccc2Cl)o1
-36.5% [at 11.4 µM] (inactive)

What would you report for Cc1cc(C)cc(NC(=O)CCC(=O)Nc2cc(C)on2)c1 ?
165% [at 11.4 µM] (inactive)

====

PROTOCOL_DESCRIPTION: CMV-Luciferase Counterscreen for Inhibitors of ATXN expression; also: nearly all actives have a fitted effect of over 55% in size
CONDITION_SUMMARY: HEK-293 CMV-luciferase reporter, luminescence, 24 h; series mostly up to 57.5 µM
Out of some 2,100 compounds screened, about 670 (32%) were called active. Another 50% or so got no clear call; they are omitted. Calls come from the whole dose curve; as a rule, active = well fitted inhibition curve with a large enough effect; inconclusive = small, poorly fitted or top-dose-only effect; inactive = no such curve, though single readings can be large or run the other way. This is one part of the list.
Select the correct class. Options are T (active), F (inactive) and nothing else.

Worked cases, answers included:
COc1ccc(Nc2nc(N3CCCC3)c3ccccc3n2)cc1 T
C=CS(=O)(=O)c1c2cc(OC)ccc2nc2ccc(OC)cc12 F

API: the following record is the query input.
For COc1cc(N)ccc1Nc1c2ccccc2nc2ccccc12 , which call appears in the assay record?
T

====

PROTOCOL_DESCRIPTION: CMV-Luciferase Counterscreen for Inhibitors of ATXN expression; also: nearly all actives have a fitted effect of over 55% in size
CONDITION_SUMMARY: HEK-293 CMV-luciferase reporter, luminescence, 24 h; series mostly up to 57.5 µM
Screen size: about 2,100 compounds; about 670 (32%) were called active. Not shown: some 50% with an inconclusive outcome. Calls come from the whole dose curve; as a rule, active = well fitted inhibition curve with a large enough effect; inconclusive = small, poorly fitted or top-dose-only effect; inactive = no such curve, though single readings can be large or run the other way. The list shows a part of the results.
Your answer must be one of the following: active, inactive

Recorded results for 3 molecules are shown here.
COc1ccc(CNc2ncnc3c2[nH]c2ccccc23)cc1 active
CC[C@@H]1C(c2cccc(Cl)c2)=NN(c2ccc(Br)cc2)[C@H]1C(=O)N1CCOC1=O inactive
Fc1ccc2[nH]c3c(NCc4ccccc4)ncnc3c2c1 active

Continue with the molecule presented below.
Hi team, can someone confirm the assay call for O=C(Nc1ccc(N2CCN(C(=O)c3ccco3)CC2)c(Cl)c1)c1cccs1 ?
active

====

PROTOCOL_DESCRIPTION: CMV-Luciferase Counterscreen for Inhibitors of ATXN expression; also: nearly all actives have a fitted effect of over 55% in size
CONDITION_SUMMARY: HEK-293 CMV-luciferase reporter, luminescence, 24 h; series mostly up to 57.5 µM
About 670 (32%) of roughly 2,100 compounds were called active. Another 50% or so got no clear call; they are omitted. The call rests on the fitted dose curve; in most records, active means well fitted inhibition curve with a large enough effect; inconclusive means small, poorly fitted or top-dose-only effect; inactive means no such curve, though single readings can be large or run the other way. Some of the results follow.
Just give me one of these, please: yes (1) = active, no (0) = inactive

Solved entries (count: 3):
COMPOUND	CLASS
COc1ccc(/C(C)=N/NC(=O)c2cccc(S(=O)(=O)N3CCCC3)c2)c(O)c1	yes (1)
Cc1cc(C(=O)N/N=C/c2cc(Br)cc(Br)c2OC(=O)c2cccc(F)c2)n[nH]1	yes (1)
Cc1ccc(OCC(O)Cn2c(=N)n(CCN3CCCCC3)c3ccccc32)cc1 (stereo unspecified)	no (0)

Kindly provide the recorded test outcome for the following compound: COC(=O)c1c(NC(=O)/C=C/C(=O)O)sc(C)c1-c1ccc(C(C)C)cc1
yes (1)

Item: CCCCn1c(=N)n(CCOc2ccc(C)cc2)c2ccccc21
yes (1)

And the next one, Cc1ccc(-c2cn(-c3ccc(OC(F)F)cc3)c3[n+]2CCCCC3)cc1 ?
yes (1)
